// reported normalised response per item
Tested on: HDQ-P1
Assay Name: normalised response (% of control), CellTox Green; higher = less cell death (100 = DMSO, 0 = benzethonium chloride kill control)
Assay Conditions: incubation time: 72 h

# Molecule, normalised response
records = [
    ("Cn1cc(C[C@@H](N)C(=O)O)c2ccccc21 [1-methyl-D-tryptophan] (500 nM)", "107%"),
    ("NC1(c2ccc(-c3nc4ccn5c(=O)[nH]nc5c4cc3-c3ccccc3)cc2)CCC1 [MK-2206] (10 nM)", "114%"),
    ("CCc1c(C(=O)C(N)=O)c2c(OCC(=O)O)cccc2n1Cc1ccccc1 [Varespladib] (1000 nM)", "114%"),
    ("CCc1c(C(=O)C(N)=O)c2c(OCC(=O)O)cccc2n1Cc1ccccc1 [Varespladib] (100 nM)", "96%"),
]

====

System: BT-549
Assay Name: drug sensitivity score (DSS), CellTiter-Glo (DSS (AUC-based score)); higher = stronger drug effect (viability inhibition or cytotoxicity); extreme values may be limits of the assay
Assay Conditions: incubation time: 72 h

# Compound, drug sensitivity score
records = [
    ("N[C@@H](Cc1ccc(N(CCCl)CCCl)cc1)C(=O)O", 14.4),
    ("NC(=O)NO [Hydroxyurea]", 1.87),
    ("CCCCCOC(=O)Nc1nc(=O)n([C@@H]2O[C@H](C)[C@@H](O)[C@H]2O)cc1F", 0),
    ("O=C(O)CC[C@H]1CC[C@@](c2cc(F)ccc2F)(S(=O)(=O)c2ccc(Cl)cc2)CC1", 0),
    ("CO[C@H]1C[C@@H]2CC[C@@H](C)[C@@](O)(O2)C(=O)C(=O)N2CCCC[C@H]2C(=O)O[C@H]([C@H](C)C[C@@H]2CC[C@@H](O)[C@H](OC)C2)CC(=O)[C@H](C)/C=C(\\C)[C@@H](O)[C@@H](OC)C(=O)[C@H](C)C[C@H](C)/C=C/C=C/C=C/1C", 9.21),
    ("NC1(c2ccc(-c3nc4ccn5c(=O)[nH]nc5c4cc3-c3ccccc3)cc2)CCC1", 2.74),
    ("NC(=O)c1cccc2cn(-c3ccc([C@@H]4CCCNC4)cc3)nc12", 0),
    ("CC(C)NC[C@@H](C(=O)N1CCN(c2ncnc3c2[C@H](C)C[C@H]3O)CC1)c1ccc(Cl)cc1", 6.02),
]

====

Test system: CAL-85-1
Assay Name: normalised viability (% of control), CellTiter-Blue; higher = more viable cells (about 100 = DMSO control)
Assay Conditions: 100 nM; incubation time: 72 h
// reported normalised viability per item

# Compound, Test System, normalised viability / %
measured = [
    ("CCN(CC)CCOc1ccc(C(=C(Cl)c2ccccc2)c2ccccc2)cc1 [Clomifene]", "CAL-85-1", 91.2),
    ("O=NN(CCCl)C(=O)NC1CCCCC1 [Lomustine]", "CAL-85-1", 104),
    ("C[C@]12C=CC(=O)C=C1CC[C@@H]1[C@@H]2C(=O)C[C@@]2(C)[C@H]1CC[C@]2(O)C(=O)CO [Prednisone]", "CAL-85-1", 90.9),
    ("C[C@@H](CN1CC(=O)NC(=O)C1)N1CC(=O)NC(=O)C1 [Dexrazoxane]", "CAL-85-1", 96.7),
    ("CC/C(=C(\\c1ccccc1)c1ccc(OCCN(C)C)cc1)c1ccccc1 [Tamoxifen]", "CAL-85-1", 116),
]

All values here come from the supplement of paper PMC4862054.
